Some molecules, each annotated with its measured melting point.

[
  {
    "molecule": "O=C1c2cccc3c(F)ccc(c23)C(=O)N1O",
    "melting point": "257 to 261 °C"
  },
  {
    "molecule": "Cc1cc(-n2ccc(OCc3ccccc3)cc2=O)sc1C(=O)NCc1cccc(F)c1",
    "melting point": "140 to 141 °C"
  },
  {
    "molecule": "CCCc1nc2c(N)nc3ccc(C)cc3c2s1",
    "melting point": "147 to 149 °C"
  },
  {
    "molecule": "O=c1[nH]c(=O)n(Cc2ccc(OCCc3coc(-c4ccccc4)n3)cc2)[nH]1",
    "melting point": "224 to 230 °C"
  },
  {
    "molecule": "OC1CSC(Oc2cccc(-c3cncnc3)c2)C(O)C1O (stereo not given)",
    "melting point": "241 °C"
  }
]

----------
Measured melting point by item
reported metric: melting point

[
  {
    "compound": "CCc1nc(-c2cc(Cl)c(O)c(Cl)c2)no1",
    "endpoint result": "126 °C"
  },
  {
    "compound": "CCN1CCN(Cc2ccc(COc3cccc4c3CN(C3CCC(=O)NC3=O)C4=O)cc2)CC1=O (centres undefined)",
    "endpoint result": "163 to 165 °C"
  },
  {
    "compound": "COc1cc2ncnc(N3CCC(CN4C=CC=NS4(=O)=O)CC3)c2cc1OC",
    "endpoint result": "173 to 174 °C"
  },
  {
    "compound": "N#Cc1cc(Cn2cncn2)cc(-c2ccc(O)cc2)c1",
    "endpoint result": "186 to 187 °C"
  },
  {
    "compound": "CC(=O)Nc1csc(-c2ccc3c(=O)n(CC(C)C)c(CNC(=O)OC(C)(C)C)c(-c4ccccc4)c3c2)n1",
    "endpoint result": "227 to 228 °C"
  },
  {
    "compound": "CN(c1ccc(-c2ccc(C(=N)N)cc2)nn1)[C@H]1CC[C@H](C(=O)O)CC1",
    "endpoint result": "308 to 310 °C"
  },
  {
    "compound": "CCCCCCCCc1ccc(OCC(O)Cn2cccn2)cc1 (centres undefined)",
    "endpoint result": "88 °C"
  },
  {
    "compound": "CC1=NC(=NO)SC1(C)C",
    "endpoint result": "151 to 153 °C"
  },
  {
    "compound": "COC(=O)C(Cl)=Cc1cc(-n2ncc(C(F)(F)F)c(C)c2=O)c(F)cc1Cl",
    "endpoint result": "142 to 145 °C"
  },
  {
    "compound": "COc1ncc(NC(N)=S)c(OC)n1",
    "endpoint result": "175 °C"
  },
  {
    "compound": "O=C1Cc2cc3c(cc2CCN1)OCO3",
    "endpoint result": "236 to 237 °C"
  },
  {
    "compound": "COc1ccc(-c2nn(CC(C)C)c(=O)cc2-c2ccc(OC)c(F)c2)cc1",
    "endpoint result": "125 °C"
  },
  {
    "compound": "Cc1ccc(N2CCN(C)CC2)c2c1CC[C@@H](NC(=O)c1ccc(Cl)cc1)C2",
    "endpoint result": "210 to 212 °C"
  },
  {
    "compound": "CC(C)Sc1cc(O)c(N)c(C#N)c1",
    "endpoint result": "145 to 146 °C"
  },
  {
    "compound": "COc1nc(C(F)(F)C(F)(F)F)cc(=O)n1-c1cc(OC(C)C)c(Cl)cc1F",
    "endpoint result": "79 to 81 °C"
  },
  {
    "compound": "NS(=O)(=O)c1cccc(NC(=O)c2cnn3c(C(F)(F)F)cc(-c4ccc(Cl)c(Cl)c4)nc23)c1",
    "endpoint result": "302 °C"
  },
  {
    "compound": "CNC(=O)c1cc(-c2ccc(OC)cc2)nn(CC=C(C)C)c1=O",
    "endpoint result": "104 °C"
  },
  {
    "compound": "CSc1nc(-c2cc(C(C)(C)C)c(O)c(C(C)(C)C)c2)c[nH]1",
    "endpoint result": "249 to 251 °C"
  },
  {
    "compound": "COC(=O)C1Cc2c([nH]c3ccccc23)C(c2cc(OC)ccc2OC)N1C(=O)CCl (centres undefined)",
    "endpoint result": "108 to 111 °C"
  },
  {
    "compound": "CC(C)(C)c1cc(SC2(Sc3cc(C(C)(C)C)c(O)c(C(C)(C)C)c3)CCCCC2)cc(C(C)(C)C)c1O",
    "endpoint result": "195 to 197 °C"
  },
  {
    "compound": "O=C(O)C1(c2ccccc2)CCN(CCC(c2ccccc2)(c2ccccc2)c2ccccn2)CC1",
    "endpoint result": "270 to 275 °C"
  },
  {
    "compound": "CC(CF)(CF)C(O)C(Oc1ccc(Cl)cc1)n1ccnc1 (centres undefined)",
    "endpoint result": "137 °C"
  },
  {
    "compound": "Cc1cc(C(=O)c2[nH]c3ccc(Cl)cc3c2CC(=O)O)no1",
    "endpoint result": "253 to 255 °C"
  },
  {
    "compound": "CCCc1cc(NC(=O)c2c(C)nn(C)c2C)c(C)cc1C(OC)(C(F)(F)F)C(F)(F)F",
    "endpoint result": "132 to 134 °C"
  },
  {
    "compound": "CC1(C)CC(N2CCCCCC2=O)CC(C)(C)N1CCO",
    "endpoint result": "141 to 142 °C"
  },
  {
    "compound": "CC(C)(Oc1ccc2c(-c3ccc(Cl)cc3)noc2c1)C(=O)O",
    "endpoint result": "132 °C"
  },
  {
    "compound": "CC1(C)c2ccccc2[C@H]2Nc3ccccc3[C@H]21 (relative stereo)",
    "endpoint result": "57 to 59 °C"
  },
  {
    "compound": "O=C(CN1CCC(Cc2ccc(F)cc2)CC1)Nc1ccc2[nH]c(=O)oc2c1",
    "endpoint result": "228 to 231 °C"
  },
  {
    "compound": "C[C@@H](N(CCOCc1ccccc1)C(=O)c1ccc(OCC(F)(F)C(F)F)cc1)[C@](O)(Cn1cncn1)c1ccc(Cl)cc1Cl (relative stereo)",
    "endpoint result": "51 to 62 °C"
  },
  {
    "compound": "ON=C1CCC2(O)C3Cc4ccc(O)c5c4C2(CCN3CC2CC2)C1O5 (centres undefined)",
    "endpoint result": "235 to 236 °C"
  },
  {
    "compound": "COc1cc2ncnc(NC3=CC(=O)C(N(C)c4ccccc4)=CC3=O)c2cc1OC",
    "endpoint result": "204 to 206 °C"
  },
  {
    "compound": "Cc1ccc(C(=O)N2CCOCC2)c(Nc2ccc3cn[nH]c3c2)n1",
    "endpoint result": "103 to 104 °C"
  },
  {
    "compound": "CC1(C)CC(=O)Nc2c(CCN3CCN(C4=NS(=O)c5ccccc54)CC3)cc(F)cc21 (centres undefined)",
    "endpoint result": "235 °C"
  },
  {
    "compound": "CON=C(c1cc(C)no1)c1ccccc1COc1ncc(C(F)(F)F)cc1Cl",
    "endpoint result": "77 to 79 °C"
  },
  {
    "compound": "O=C1NC(=Cc2c[nH]c3ccccc23)C(=O)N1Cc1cc(C(F)(F)F)cc(C(F)(F)F)c1",
    "endpoint result": "151 to 153 °C"
  },
  {
    "compound": "O=C1c2ccccc2C(=O)N1CC#CCSc1nccc(NC(=S)NCC(F)(F)F)n1",
    "endpoint result": "124 to 127 °C"
  },
  {
    "compound": "Nc1nc(Cl)cnc1-c1cccc(Cl)c1Cl",
    "endpoint result": "179 to 181 °C"
  },
  {
    "compound": "O=C1CCC(c2ccc3[nH]c(-c4ccsc4)cc3c2)=NN1",
    "endpoint result": "325 to 333 °C"
  },
  {
    "compound": "CS(=O)(=O)ON=C(C#N)C(N)=O",
    "endpoint result": "136 to 142 °C"
  }
]
